Measured apparent KD of K4 kissing-loop reporter, listed per entry.
Tested on: K4 kissing-loop RNA reporter;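 note: bound reporter read as fluorescence of individual clusters on recovered sequencing chips by microscopy, with normalized cluster intensities fitted with a binding model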
Experiment notes: apparent KD of K4 kissing-loop reporter; higher = weaker reporter binding
Condition summary: Eterna round: R107; input ligand: arginine 13.2 mM
Please respond with the number in µM and leave the unit unwritten.

As a guide, the following entries are already answered.
UUCUACGAGUGAUGUUCGUAGUGUAUUCGCUAGGAUAUCGUUUUUUCGAGAAGGAGUGAUGAAGUGAUACGAAAGUAUCGCUUCU [FMN A 14]; 0.241
CGGCGCGGCGCGGCCGCCACUGCGCCUGGGCGCUCGCCGAGUGAUGUUCGUCGGCGGUCGGGUGGCAGGACCGGGUGCCGGCCCG [BDazzled - #20 SS Tryptophan B]; 0.227
GGACUCAAAUGUAGUGAUGUUACAAGCGAUACCAGUAUCUAACAUUACCCUUGGCAGCGCGCCCAGCUCAGCAAAUUAGAUAGCG [theeternabot_sameState_KL_Theo_A_43]; 0.204

query: Given UGAUACCAGACUGAUACCAGCAGUGAUGUUGCUGAAAAUAAUAAAUGAGUCAAAGACUCGGGCCCUUGGCAGCAGUCUGGUAUCU [TheoBX 8 #SwitchBubble #StaticStem] , respond with its apparent KD of K4 kissing-loop reporter.
result: 0.114
